Reported viability values are given for each entry in this list.
experiment: SK-BR-3 cell growth inhibitors, pilot screen, 24 h, human (AID 572); settings: SK-BR-3 viability, CellTiter-Glo luminescence, at 10 µM, stronger effect = lower value;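 further: compound exposure lasted between 18 and 24 h rather than exactly 24 h; 100% = carrier-treated control wells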
Square brackets hold non-standard residues; d marks the D form. Peptide text beside a SMILES is read from it. * marks the point of attachment. ξ: configuration not given here. Piv = CC(C)(C)C(=O)*; ξNva = CCCC(N)C(=O)O

>  <compound>
O=C(CSc1ncc(-c2ccc(F)cc2)[nH]1)N1CCCCC1

>  <viability [%]>
91

$$$$
>  <compound>
C=CCn1c(SCC(=O)NC2CCCCC2)nnc1-c1sc(N)nc1C

>  <viability [%]>
99.5

$$$$
>  <compound>
CCOC(=O)COc1ccc(S(=O)(=O)Nc2ccc3c(c2)OCO3)cc1

>  <viability [%]>
164

$$$$
>  <compound>
CCCC(NC(=O)CNC(=O)C(C)(C)C)C(=O)O (stereo not drawn) (Piv-Gly-[ξNva]-OH)

>  <viability [%]>
91

$$$$
>  <compound>
CCCCn1c(SCC(=O)Nc2ccc(OC)cc2)nc2ccc(N3CCOCC3)cc2c1=O

>  <viability [%]>
94.5

$$$$
